System: Shigella flexneri
Experiment: growth AUC normalised to DMSO control (fraction of control); higher = less growth inhibition, active = hit call of the paper
Settings: 20 µM
Where a name gives a salt, the structure may show the parent alone.
compounds and their reported growth AUC normalised to DMSO control
Please state the value as a number alone, without comment.

COMPOUND	MEASURED ON	growth AUC normalised to DMSO control
COc1ccc(CC2c3cc(OC)c(OC)cc3CC[N+]2(C)CCC(=O)OCCCCCOC(=O)CC[N+]2(C)CCc3cc(OC)c(OC)cc3C2Cc2ccc(OC)c(OC)c2)cc1OC (configuration not stated) [Atracurium besylate]	Shigella flexneri	1.05
CC(=O)OCC(=O)[C@@]1(OC(C)=O)[C@@H](C)C[C@H]2[C@@H]3C[C@H](F)C4=CC(=O)C=C[C@]4(C)[C@@]3(F)[C@@H](O)C[C@@]21C [Diflorasone Diacetate]	Shigella flexneri	0.977
CC(C(=O)O)c1cccc(Oc2ccccc2)c1 (configuration not stated) [Fenoprofen calcium salt dihydrate]	Shigella flexneri	0.924
CC1CC(OC(=O)c2ccccc2O)CC(C)(C)C1 (configuration not stated) [Homosalate]	Shigella flexneri	0.996

Q. # get_value(readout='growth AUC normalised to DMSO control', item= COc1cc2nc(N3CCN(C(=O)c4ccco4)CC3)nc(N)c2cc1OC [Prazosin hydrochloride] )
A. 0.984

Q. Next record, please: CC(C)(O)c1ccccc1CC[C@@H](SCC1(CC(=O)O)CC1)c1cccc(/C=C/c2ccc3ccc(Cl)cc3n2)c1
A. 1.04

Q. Now this one: NS(=O)(=O)c1cc2c(cc1Cl)NCNS2(=O)=O [Hydrochlorothiazide]
A. 0.994

From: the supplement of paper PMC12350171
